tested on: HT-29; experiment: MTT antiproliferative assay, HT-29; type: cell-based, human; settings: Homo sapiens, HT-29, 72 h, read-out: IC50 HT-29
Assignment: determine reported log10(IC50) for the given molecules.
Note: values are log10 of IC50 expressed in µM.

Input: Returns the measured log10(IC50) for the input molecule. Input: O=C1C=C(Nc2ccc(OCc3cn(Cc4ccc(Cl)c(Cl)c4)nn3)cc2)C(=O)c2ccccc21 [Compound 4e]
Output: -0.22

Input: Returns the measured log10(IC50) for the input molecule. Input: CC(C)(C)c1ccc(Cn2cc(COc3ccc(NC4=CC(=O)c5ccccc5C4=O)cc3)nn2)cc1 [Compound 4 h]
Output: 0.40

Input: Returns the measured log10(IC50) for the input molecule. Input: O=C1C=C(Nc2ccc(OCc3cn(Cc4ccc(Br)cc4)nn3)cc2)C(=O)c2ccccc21 [Compound 4b]
Output: 1.76

Input: Returns the measured log10(IC50) for the input molecule. Input: COc1cccc2c1C(=O)c1c(O)c3c(c(O)c1C2=O)C[C@@](O)(C(=O)CO)C[C@@H]3O[C@H]1C[C@H](N)[C@H](O)[C@H](C)O1 [Doxorubicin, reference compound]
Output: -0.22

Input: Returns the measured log10(IC50) for the input molecule. Input: O=C1C=C(Nc2ccc(OCc3cn(Cc4ccccc4)nn3)cc2)C(=O)c2ccccc21 [Compound 4a]
Output: 1.34

Input: Returns the measured log10(IC50) for the input molecule. Input: COc1cc2nccc(Oc3ccc(NC(=O)C4(C(=O)Nc5ccc(F)cc5)CC4)cc3)c2cc1OC [Cabozantinib, reference compound]
Output: 0.57

Input: Returns the measured log10(IC50) for the input molecule. Input: CC(C)c1ccc(Cn2cc(COc3ccc(NC4=CC(=O)c5ccccc5C4=O)cc3)nn2)cc1 [Compound 4 g]
Output: 0.69

Input: Returns the measured log10(IC50) for the input molecule. Input: Cc1ccc(Cn2cc(COc3ccc(NC4=CC(=O)c5ccccc5C4=O)cc3)nn2)cc1 [Compound 4i]
Output: 0.11

Input: Returns the measured log10(IC50) for the input molecule. Input: O=C1C=C(Nc2ccc(OCc3cn(Cc4ccc(Cl)cc4)nn3)cc2)C(=O)c2ccccc21 [Compound 4d]
Output: 0.49

Input: Returns the measured log10(IC50) for the input molecule. Input: O=C1C=C(Nc2ccc(OCc3cn(Cc4cccc(Cl)c4)nn3)cc2)C(=O)c2ccccc21 [Compound 4f]
Output: 0.28

---

biological target: CDK2/cyclin A (Homo sapiens, UniProt P24941); test: Radiometric kinase assay; assay type: biochemical; conditions: read-out: Kinase inhibition (%) CDK2/cyclin A
Assignment: determine reported inhibition at 10 µM for the given compounds.
Number only, in %; omit the unit.

Input: Returns the measured inhibition at 10 µM for the input compound. Input: "O=C1C=C(Nc2ccc(OCc3cn(Cc4ccccc4)nn3)cc2)C(=O)c2ccccc21"
Output: 73

Input: Returns the measured inhibition at 10 µM for the input compound. Input: "O=C1C=C(Nc2ccc(OCc3cn(Cc4ccc(Cl)c(Cl)c4)nn3)cc2)C(=O)c2ccccc21"
Output: 9

Input: Returns the measured inhibition at 10 µM for the input compound. Input: "CC(C)c1ccc(Cn2cc(COc3ccc(NC4=CC(=O)c5ccccc5C4=O)cc3)nn2)cc1"
Output: 1

Input: Returns the measured inhibition at 10 µM for the input compound. Input: "Cc1ccc(Cn2cc(COc3ccc(NC4=CC(=O)c5ccccc5C4=O)cc3)nn2)cc1"
Output: 51

Input: Returns the measured inhibition at 10 µM for the input compound. Input: "O=C1C=C(Nc2ccc(OCc3cn(Cc4ccc(Br)cc4)nn3)cc2)C(=O)c2ccccc21"
Output: 32
